# System: gene editing with dCas9
# experiment notes: Screen of 322 new SSAP proteins, gene editing activity with dCas9 (Table 5)
# Format: cell-based
# assay context: normalized
parameter measured: dCas9 with SSAP activity (normalized)

1) SSAP_52: SEQ ID NO: 221 (protein) TIMDLLNDPKMKSQIQRALPNGMSAERIARIALTALRMNPQLQECSPQSFAAALMTSAQLGLEPNTPLGHAWLIPRKNHGKMEVQFELGYKGMLDLVRRSGMITAIFAEEVREKDEFEFEYGTNPYLKHKPYLGGDRGKVLFYYAVATFKDGGYAFKVMSIPEIEEARKLSQSANSPYSPWNRFYDEMAKKTVLKRLCKYLPLSIEVQRNLAQDETIRTQIEADDILDLPNENEFEVVEVEEIPGEEEKEEAKEGPFPNKALRESPTPLT | 0.148
